# Tested on: Enterococcus hirae
# assay info: Antimicrobial activity against Enterococcus hirae after 24 hrs
# Type: functional
Give MIC for every item shown.
Only the number, expressed in µM, is required.

### Prompt Supply recorded MIC for CCCCCCCCCCCCCCCC(=O)NCCCC[C@H](N)C(=O)OC.Cl here.
### Response 74

### Prompt Supply recorded MIC for CCCCCCCCCCCC(=O)N[C@@H](CCCNC(=N)N)C(=O)OC here.
### Response 39

### Prompt Supply recorded MIC for CCCCCCCCCCCC(=O)NCCCC[C@H](N)C(=O)OC.Cl here.
### Response 338

### Prompt Supply recorded MIC for CCCCCCCCCCCCCC(=O)NCCCC[C@H](N)C(=O)OC.Cl here.
### Response 157
